Each item that follows carries a reported concentration at 15 min.
- experiment-notes: Plasma concentrations and pharmacokinetics after intravenous bolus of C3G (NCA and two-compartment model)
- Assay type: in vivo, Wistar rats
- measurement-setup: male, Wistar, rat, plasma, iv; 15 min after i.v. 668 nmol C3G, mean ± SEM n=4
Kindly provide the numeric value in nM only, without the unit symbol.

Study these solved cases before continuing.
- OC[C@H]1O[C@@H](Oc2cc3c(O)cc(O)cc3[o+]c2-c2ccc(O)cc2)[C@H](O)[C@@H](O)[C@@H]1O [PG3G, Pelargonidin-3-O-β-glucoside]: 1.9
- COc1cc(-c2[o+]c3cc(O)cc(O)c3cc2O[C@@H]2O[C@H](CO)[C@@H](O)[C@H](O)[C@H]2O)cc(OC)c1O [M3G, Malvidin-3-O-β-glucoside]: 3.67
- OC[C@H]1O[C@@H](Oc2cc3c(O)cc(O)cc3[o+]c2-c2ccc(O)c(O)c2)[C@H](O)[C@@H](O)[C@@H]1O [C3G, Cyanidin-3-O-β-glucoside]: 17.5

The reported concentration at 15 min of the molecule COc1cc(-c2[o+]c3cc(O)cc(O)c3cc2O[C@@H]2O[C@H](CO)[C@@H](O)[C@H](O)[C@H]2O)ccc1O [PN3G, Peonidin-3-O-β-glucoside] was 3.73
